meta.source: patent US7863315B2

System: Hut-78 human T lymphoma cell line
Test: Anti-cell proliferation (MTS), Hut-78
Type: cell-based
Settings: HuT78, 72 hours
parameter_measured: GI50 (µM)
// return numeric value only (unit: µM, not printed)

**Query** Fill in: GI50 of "Cc1[nH]c(/C=N/N=C2\C(=O)Nc3ccc(F)cc32)c(C)c1C(=O)NCCCCCCCC(=O)Nc1ccc(F)cc1N" is ___
**Result** 6.92

**Query** Also need "Nc1cc(F)ccc1NC(=O)CCCCCCCNC(=O)c1ccc(/C=N/N=C2\C(=O)Nc3ccc(F)cc32)cc1" , thanks.
**Result** 10.7

**Query** Also need "Nc1ccccc1NC(=O)CCCCCCCNC(=O)c1cccc(/C=C2\C(=O)Nc3ccc(F)cc32)c1" , thanks.
**Result** 3.89

**Query** Also need "Nc1cc(F)ccc1NC(=O)CCCCNC(=O)c1cccc(/C=C2\C(=O)Nc3ccc(F)cc32)c1" , thanks.
**Result** 6.76

**Query** Also need "Cc1[nH]c(/C=N/N=C2\C(=O)Nc3ccc(F)cc32)c(C)c1C(=O)NCCCCCCCC(=O)Nc1ccccc1N" , thanks.
**Result** 4.27

**Query** Also need "Nc1ccccc1NC(=O)CCCCCNC(=O)c1ccc(/C=C2\C(=O)Nc3ccc(F)cc32)cc1" , thanks.
**Result** 4.17

**Query** Also need "Nc1ccccc1NC(=O)CCCCCNC(=O)c1cccc(/C=C2\C(=O)Nc3ccc(F)cc32)c1" , thanks.
**Result** 4.37

**Query** Also need "O=C(CCCCCCCNC(=O)c1cccc(/C=C2\C(=O)Nc3ccc(F)cc32)c1)NO" , thanks.
**Result** 4.57

**Query** Also need "Cc1[nH]c(/C=N/N=C2\C(=O)Nc3ccc(F)cc32)c(C)c1C(=O)NCCCCCCCC(=O)NO" , thanks.
**Result** 14.1

**Query** Also need "Nc1cc(F)ccc1NC(=O)CCCCCNC(=O)c1ccc(/C=C2\C(=O)Nc3ccc(F)cc32)cc1" , thanks.
**Result** 4.17

---

Molecular target: HDAC6 (α-tubulin acetylation) (Homo sapiens)
Construct: endogenous in cells; host or cells: HeLa
Sequence (Q9UBN7 whole entry): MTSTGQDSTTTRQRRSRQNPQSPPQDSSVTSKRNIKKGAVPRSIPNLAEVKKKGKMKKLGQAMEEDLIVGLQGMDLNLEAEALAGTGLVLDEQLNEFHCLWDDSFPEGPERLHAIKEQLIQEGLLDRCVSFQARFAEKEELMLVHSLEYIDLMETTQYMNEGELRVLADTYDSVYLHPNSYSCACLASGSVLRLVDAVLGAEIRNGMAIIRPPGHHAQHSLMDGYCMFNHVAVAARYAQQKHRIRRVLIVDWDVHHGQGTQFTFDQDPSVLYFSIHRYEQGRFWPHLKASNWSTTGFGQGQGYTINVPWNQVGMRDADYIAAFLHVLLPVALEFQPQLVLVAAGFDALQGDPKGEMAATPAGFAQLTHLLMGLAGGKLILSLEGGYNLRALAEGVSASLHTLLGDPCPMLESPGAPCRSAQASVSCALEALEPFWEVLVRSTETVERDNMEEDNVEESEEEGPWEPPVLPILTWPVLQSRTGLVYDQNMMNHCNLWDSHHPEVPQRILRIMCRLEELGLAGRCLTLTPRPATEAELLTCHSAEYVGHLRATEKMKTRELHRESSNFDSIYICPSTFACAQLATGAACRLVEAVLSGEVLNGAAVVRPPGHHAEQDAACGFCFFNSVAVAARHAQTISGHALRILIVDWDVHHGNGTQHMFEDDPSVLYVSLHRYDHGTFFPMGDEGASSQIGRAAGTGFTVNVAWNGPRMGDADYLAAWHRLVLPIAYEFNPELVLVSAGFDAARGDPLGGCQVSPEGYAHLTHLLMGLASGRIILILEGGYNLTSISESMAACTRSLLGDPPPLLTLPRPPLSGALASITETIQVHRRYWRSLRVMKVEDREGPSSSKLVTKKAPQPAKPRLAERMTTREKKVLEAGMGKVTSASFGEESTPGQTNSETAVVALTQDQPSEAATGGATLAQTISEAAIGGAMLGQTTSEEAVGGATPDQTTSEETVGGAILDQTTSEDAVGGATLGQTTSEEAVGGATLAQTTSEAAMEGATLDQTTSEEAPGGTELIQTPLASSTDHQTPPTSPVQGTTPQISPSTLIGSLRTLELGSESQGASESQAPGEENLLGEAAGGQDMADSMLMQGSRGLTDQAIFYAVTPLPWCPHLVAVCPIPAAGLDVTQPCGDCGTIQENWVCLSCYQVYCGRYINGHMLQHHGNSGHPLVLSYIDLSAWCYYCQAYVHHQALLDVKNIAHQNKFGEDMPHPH
Assay: ELISA assay of acetylation of α-tubulin in HeLa cells
Type: cell-based
Conditions: M-HeLa, 24 hours
Kindly return True if reported fold induction at 10 µM is no lower than 2; return False if it is lower.

**Query** Could you tell me if the measured fold induction at 10 µM of "Nc1ccccc1NC(=O)CCCCNC(=O)c1cccc(/C=C2\C(=O)Nc3ccc(F)cc32)c1" reaches 2 or more?
**Result** True

**Query** Also need "Cc1[nH]c(/C=N/N=C2\C(=O)Nc3ccc(F)cc32)c(C)c1C(=O)NCCCCCCCC(=O)Nc1ccc(F)cc1N" , thanks.
**Result** False

**Query** Also need "Cc1[nH]c(/C=N/N=C2\C(=O)Nc3ccc(F)cc32)c(C)c1C(=O)NCCCCC(=O)Nc1ccccc1N" , thanks.
**Result** False

**Query** Also need "O=C(CCCCCNC(=O)c1cccc(/C=C2\C(=O)Nc3ccc(F)cc32)c1)NO" , thanks.
**Result** True

**Query** Also need "Nc1ccccc1NC(=O)CCCCCCCNC(=O)c1cccc(/C=C2\C(=O)Nc3ccc(F)cc32)c1" , thanks.
**Result** True

**Query** Also need "Cc1[nH]c(/C=N/N=C2\C(=O)Nc3ccc(F)cc32)c(C)c1C(=O)NCCCCCCCC(=O)NO" , thanks.
**Result** False

**Query** Also need "Nc1cc(F)ccc1NC(=O)CCCCCNC(=O)c1ccc(/C=C2\C(=O)Nc3ccc(F)cc32)cc1" , thanks.
**Result** False

**Query** Also need "Nc1cc(F)ccc1NC(=O)CCCCCCCNC(=O)c1ccc(/C=N/N=C2\C(=O)Nc3ccc(F)cc32)cc1" , thanks.
**Result** False

**Query** Also need "Nc1ccccc1NC(=O)CCCCCNC(=O)c1ccc(/C=N/N=C2\C(=O)Nc3ccc(F)cc32)cc1" , thanks.
**Result** True

**Query** Also need "Nc1cc(F)ccc1NC(=O)CCCCCCCNC(=O)c1cccc(/C=C2\C(=O)Nc3ccc(F)cc32)c1" , thanks.
**Result** False

**Query** Also need "O=C(CCCCCNC(=O)c1ccc(/C=N/N=C2\C(=O)Nc3ccc(F)cc32)cc1)NO" , thanks.
**Result** False

**Query** Also need "Cc1[nH]c(/C=N/N=C2\C(=O)Nc3ccc(F)cc32)c(C)c1C(=O)NCCCCCC(=O)NO" , thanks.
**Result** True

---

Test system: total HDAC enzyme (HeLa extract)
Test: In vitro inhibition of total HDAC enzyme activity (HDAC Fluorimetric Assay/Drug Discovery Kit, BIOMOL)
Assay type: biochemical, human
parameter_measured: % of Inhibition on Total HDAC Enzyme at 30 μM (%)
// return numeric value only (unit: %, not printed)

**Query** Fill in: % of Inhibition on Total HDAC Enzyme at 30 μM of Cc1[nH]c(/C=N/N=C2\C(=O)Nc3ccc(F)cc32)c(C)c1C(=O)NCCCCCC(=O)Nc1ccccc1N [Example 13] is ___
**Result** 30

**Query** Also need Nc1cc(F)ccc1NC(=O)CCCCCCCNC(=O)c1ccc(/C=N/N=C2\C(=O)Nc3ccc(F)cc32)cc1 [Example 36] , thanks.
**Result** −16

**Query** Also need O=C(CCCCCNC(=O)c1cccc(/C=C2\C(=O)Nc3ccc(F)cc32)c1)NO [Example 46] , thanks.
**Result** 95

**Query** Also need O=C(CCCCNC(=O)c1cccc(/C=C2\C(=O)Nc3ccc(F)cc32)c1)NO [Example 51] , thanks.
**Result** 86

**Query** Also need Cc1[nH]c(/C=N/N=C2\C(=O)Nc3ccc(F)cc32)c(C)c1C(=O)NCCCCCC(=O)Nc1ccc(F)cc1N [Example 12] , thanks.
**Result** 14

**Query** Also need Cc1[nH]c(/C=N/N=C2\C(=O)Nc3ccc(F)cc32)c(C)c1C(=O)NCCCCC(=O)Nc1ccc(F)cc1N [Example 8] , thanks.
**Result** −26

**Query** Also need Nc1cc(F)ccc1NC(=O)CCCCNC(=O)c1cccc(/C=C2\C(=O)Nc3ccc(F)cc32)c1 [Example 50] , thanks.
**Result** −3

**Query** Also need O=C(CCCCCCCNC(=O)c1cccc(/C=C2\C(=O)Nc3ccc(F)cc32)c1)NO [Example 56] , thanks.
**Result** 93

**Query** Also need Nc1cc(F)ccc1NC(=O)CCCCCCCNC(=O)c1cccc(/C=C2\C(=O)Nc3ccc(F)cc32)c1 [Example 55] , thanks.
**Result** 14

**Query** Also need O=C(CCCCCNC(=O)c1ccc(/C=N/N=C2\C(=O)Nc3ccc(F)cc32)cc1)NO [Example 31] , thanks.
**Result** 89

**Query** Also need Cc1[nH]c(/C=N/N=C2\C(=O)Nc3ccc(F)cc32)c(C)c1C(=O)NCCCCC(=O)Nc1ccccc1N [Example 7] , thanks.
**Result** 2

**Query** Also need Nc1ccccc1NC(=O)CCCCCCCNC(=O)c1ccc(/C=N/N=C2\C(=O)Nc3ccc(F)cc32)cc1 [Example 35] , thanks.
**Result** 22

**Query** Also need Cc1[nH]c(/C=N/N=C2\C(=O)Nc3ccc(F)cc32)c(C)c1C(=O)NCCCCCCCC(=O)NO [Example 26] , thanks.
**Result** 98

**Query** Also need Nc1cc(F)ccc1NC(=O)CCCCCNC(=O)c1ccc(/C=C2\C(=O)Nc3ccc(F)cc32)cc1 [Example 40] , thanks.
**Result** 22

**Query** Also need Nc1ccccc1NC(=O)CCCCCNC(=O)c1ccc(/C=N/N=C2\C(=O)Nc3ccc(F)cc32)cc1 [Example 32] , thanks.
**Result** 20

---

System: HDAC class I (p21 reporter gene)
Experiment: HDAC subtype reporter gene assay, p21-promoter luciferase in HeLa cells
Assay type: cell-based
Conditions: Homo sapiens, M-HeLa, read-out: % of SAHA Response for HDAC class I at 10 μM (p21 reporter gene), 24 hours
Method: Measurement of inhibition of HDAC subtypes activity in cells by reporter gene assay: HDAC subtype selectivity inhibition assay of tested compounds was carried out by several reporter gene assays experiments. […] To normalize the data from the luciferase assays, GFP activity from transfected cells was measured in a microtiter-plate reading fluorimeter capable of excitation at a wavelength at 485 nm and detection of emitted light at 527 nm.
Kindly state Emax at 10 µM for each of the entries shown.

**Query** Fill in: Emax at 10 µM of "Nc1ccccc1NC(=O)CCCCCNC(=O)c1ccc(/C=N/N=C2\C(=O)Nc3ccc(F)cc32)cc1" is ___
**Result** 17%

**Query** Also need "Nc1ccccc1NC(=O)CCCCCCCNC(=O)c1ccc(/C=N/N=C2\C(=O)Nc3ccc(F)cc32)cc1" , thanks.
**Result** 56%

**Query** Also need "Cc1[nH]c(/C=N/N=C2\C(=O)Nc3ccc(F)cc32)c(C)c1C(=O)NCCCCCCCC(=O)NO" , thanks.
**Result** 53%

**Query** Also need "Cc1[nH]c(/C=N/N=C2\C(=O)Nc3ccc(F)cc32)c(C)c1C(=O)NCCCCC(=O)Nc1ccccc1N" , thanks.
**Result** 11%
